- targetEntity: UniProt:P14555
- Sequence (P14555 21-144): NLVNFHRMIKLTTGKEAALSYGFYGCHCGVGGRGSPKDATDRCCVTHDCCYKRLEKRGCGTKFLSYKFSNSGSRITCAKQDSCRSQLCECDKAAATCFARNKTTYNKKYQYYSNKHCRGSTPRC
- protocolDetails: in vitro isolated phospholipase A2 assay, human synovial fluid PLA2 (Example 74)
- Format: biochemical
- Parameters: dose or concentration left out as unconfirmed
- assaySetup: read-out: % Inhibition, HSF (human synovial fluid)
Classification field: enter condition met for inhibition values not below 10%, condition not met for values below it.

Q. Hi team, for Cc1c(CC(N)=O)c2cc(OCc3nc4ccccc4s3)ccc2n1Cc1ccc(Cl)cc1 [Example 45] , is the recorded inhibition at or above 10%?
A. condition met

Q. Please do the same for CSc1ccc(Cn2c(C)c(CC(=O)O)c3cc(OCc4nc5ccccc5s4)ccc32)cc1 [Example 54] as well.
A. condition met

Q. Further, for Cc1c(CC(=O)O)c2cc(OCc3csc(-c4ccc(Cl)cc4)n3)ccc2n1Cc1ccc(Cl)cc1 [Example 69] ?
A. condition met

Q. Then what about the compound CCOC(=O)Cc1c(C)n(Cc2csc(-c3ccc(Cl)cc3)n2)c2ccc(OCc3csc(-c4ccccc4)n3)cc12 [Example 64] ?
A. condition not met

Q. Consider next the compound Cc1c(CC(=O)O)c2cc(OCc3csc(-c4ccccc4)n3)ccc2n1Cc1ccccc1 [Example 40] in the same way.
A. condition met

Q. Further, for CCN(CC)C(=O)Cc1c(C)n(Cc2ccccc2)c2ccc(OCc3nc4ccccc4s3)cc12 [Example 52] ?
A. condition met

Q. Next: Cc1c(CC(=O)O)c2cc(OCc3csc(-c4ccccc4)n3)ccc2n1Cc1csc(-c2ccc(Cl)cc2)n1 [Example 65]
A. condition met

Q. Same lookup for CC1=C(CC(=O)O)c2cc(OCc3ccc4ccccc4n3)ccc2C1=Cc1ccc(OCc2ccc3ccccc3n2)cc1 [Example 41] , please.
A. condition not met
